Known mAb-2 Binding to the Pre-complex of mAb-1 & MfIL-33-6xHis of a selection of binders
Target: T1, cynomolgus monkey IL-33 expressed with a C-terminal hexahistidine tag (cynomolgus monkey)
T1 construct: also called MfIL-33-6His; Mf-IL-33-6His
T1 chain: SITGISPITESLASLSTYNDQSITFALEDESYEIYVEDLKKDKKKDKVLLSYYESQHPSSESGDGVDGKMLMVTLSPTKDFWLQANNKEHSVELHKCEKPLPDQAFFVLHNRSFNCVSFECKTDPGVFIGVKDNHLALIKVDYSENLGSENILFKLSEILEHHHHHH
Assay: BLI; captured MfIL-33-6His, mAb-1 step with Isotype control
Description: Binding competition between a panel of different anti-IL-33 monoclonal antibodies was determined using a real time, label-free bio-layer interferometry assay on an Octet® HTX biosensor (ForteBio, A Division of Pall Life Sciences). […] The real-time binding response was monitored during the experiment, and the maximum binding response for each binding step was recorded. […]

Using the record for H4H9664P (antibody, human IgG4, V domains shown, Human IgG4 Fc (H4H)) VH: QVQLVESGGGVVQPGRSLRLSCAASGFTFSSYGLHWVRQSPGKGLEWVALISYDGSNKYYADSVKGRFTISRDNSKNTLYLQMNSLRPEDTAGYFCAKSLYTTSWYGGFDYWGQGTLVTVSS VL: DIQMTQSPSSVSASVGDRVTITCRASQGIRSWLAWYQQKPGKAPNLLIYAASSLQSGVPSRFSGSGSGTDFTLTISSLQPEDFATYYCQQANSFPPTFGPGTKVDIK , state its measured mAb-2 Binding to the Pre-complex of mAb-1 & MfIL-33-6xHis.
0.27 nm
